details: in isopropanol, 303.15 K
Measured Metric: solubility (mole fraction)
Just the number, please, no unit after it.

Report solubility (mole fraction) for CCOC(=O)OC1=C(c2cc(C)ccc2C)C(=O)NC12CCC(OC)CC2 (stereo unspecified) please. 0.00711

* * *

settings: in methanol, 318.15 K
Measured Metric: solubility (mole fraction)
Just the number, please, no unit after it.

Report solubility (mole fraction) for CCOC(=O)OC1=C(c2cc(C)ccc2C)C(=O)NC12CCC(OC)CC2 (stereo unspecified) please. 0.0321
